System: Fibroblast
Assay: Multiplex assay against human fibroblast
Format: toxicity, cell-based
Conditions: 24 h, 10 µM, compound concentration 10 uM, replicate 1
quantity-kind: Population Mitotic Cells (%)

{"compound": "Cc1noc(-c2ccc(-c3ccc(CC(=O)O)cc3)cc2)c1NC(=O)O[C@H](C)c1ccccc1Cl", "quantity-kind": "Population Mitotic Cells (%)", "value-units": "%", "endpoint-value": 50}
{"compound": "C[C@H](N)COC(=O)[C@@H](CCCCN)NC(=O)Cc1c(-c2ccc3ccccc3c2)[nH]c2c1ccc1ccccc12", "quantity-kind": "Population Mitotic Cells (%)", "value-units": "%", "endpoint-value": 36}
{"compound": "COC[C@@H](c1ccc(C(F)(F)F)cc1)N1CCN(C2(C)CCN(C(=O)c3c(C)ncnc3C)CC2)C[C@@H]1C.O=C(O)/C=C\\C(=O)O [VICRIVIROC MALEATE]", "quantity-kind": "Population Mitotic Cells (%)", "value-units": "%", "endpoint-value": 26}

----------
Test system: Fibroblast
Assay: Multiplex assay against human fibroblast
Type: toxicity, cell-based
Conditions: 24 h, 10 µM, compound concentration 10 uM, replicate 2
Listed here: items and their measured Population Healthy Nuclei (%).

{"compound": "CN[C@@H](C)C(=O)N[C@H](C(=O)N1CCC[C@H]1C(=O)Nc1snnc1-c1ccccc1)C1CCCCC1", "target-desc": "Fibroblast", "Population Healthy Nuclei (%)": "34%"}
{"compound": "Cl.N=C(N)NC(=O)Cc1c(Cl)cccc1Cl [GUANFACINE HYDROCHLORIDE]", "target-desc": "Fibroblast", "Population Healthy Nuclei (%)": "55%"}
{"compound": "C[C@H](N)COC(=O)[C@@H](CCCCN)NC(=O)Cc1c(-c2ccc3ccccc3c2)[nH]c2c1ccc1ccccc12", "target-desc": "Fibroblast", "Population Healthy Nuclei (%)": "50%"}

----------
System: U2OS
Assay: Multiplex assay against U2OS
Format: toxicity, cell-based
Conditions: human, 48 h, 1 µM, compound concentration 1 uM, replicate 1
Population Fragmented Nuclei (%) reference
quantity-kind: Population Fragmented Nuclei (%)

{"compound": "O=C(NCCN1CCC(n2c(=O)[nH]c3cc(Cl)ccc32)CC1)c1ccc(F)cc1 [HALOPEMIDE]", "endpoint-value": 16}
{"compound": "Cl.N=C(N)NC(=O)Cc1c(Cl)cccc1Cl [GUANFACINE HYDROCHLORIDE]", "endpoint-value": 28}
{"compound": "CC(C)c1noc(N2CCC(COc3ccc(-c4ccc(S(C)(=O)=O)cc4)nc3)CC2)n1", "endpoint-value": 23}
{"compound": "CC(/C=C1\\SC(=S)N(CCCC(=O)Nc2ccc(C(=O)O)c(O)c2)C1=O)=C\\c1ccccc1", "endpoint-value": 16}
{"compound": "Cc1cnc(-c2cc(N3CCN(C(=O)CCS(C)(=O)=O)CC3)ncc2Cl)c(C)c1", "endpoint-value": 29}

----------
Test system: HEK-293T
Assay: Multiplex assay against HEK293T
Format: toxicity, cell-based
Conditions: human, 12 h, 1 µM, compound concentration 1 uM, replicate 2
quantity-kind: Population Hoechst High Intensity Objects (%)

{"molecule": "Cc1onc(-c2ccccc2Cl)c1C(=O)N(C)c1ccc(Cl)cc1", "endpoint-value": 6}
{"molecule": "CC(C)c1noc(N2CCC(COc3ccc(-c4ccc(S(C)(=O)=O)cc4)nc3)CC2)n1", "endpoint-value": 6}
{"molecule": "CCCCCC(O)/C=C/[C@H]1C(=O)CC(O)C1C/C=C\\CCCC(=O)O (stereo not given in full)", "endpoint-value": 6}
{"molecule": "O=C(NCCN1CCC(n2c(=O)[nH]c3cc(Cl)ccc32)CC1)c1ccc(F)cc1 [HALOPEMIDE]", "endpoint-value": 10}
{"molecule": "COc1cccc2c1c(NS(=O)(=O)c1ccc(Cl)s1)nn2Cc1cccc(CNC(=O)C(C)(C)O)c1", "endpoint-value": 10}

----------
System: HEK-293T
Experiment: Multiplex assay against HEK293T
Assay type: toxicity, cell-based
Settings: human, 24 h, 10 µM, compound concentration 10 uM, replicate 2
Kindly apply the following: fulfilled if Population Apoptotic (%) is less than 40%, not fulfilled in every other case.

{"molecule": "N#Cc1c(Oc2cccc(OS(=O)(=O)CCCC(F)(F)F)c2)cccc1C(F)(F)F", "target-desc": "HEK-293T", "category-label": "not fulfilled"}
{"molecule": "O=C1[C@H](Cc2ccc(O)cc2)N2C(=O)CCN(C(=O)NCc3ccccc3)[C@H]2CN1Cc1cccc2ccccc12", "target-desc": "HEK-293T", "category-label": "not fulfilled"}
{"molecule": "Cl.NCCc1ccc(O)c(O)c1 [DOPAMINE HYDROCHLORIDE]", "target-desc": "HEK-293T", "category-label": "fulfilled"}
{"molecule": "CCCCCC(O)/C=C/[C@H]1C(=O)CC(O)C1C/C=C\\CCCC(=O)O (stereo partly specified)", "target-desc": "HEK-293T", "category-label": "not fulfilled"}
{"molecule": "CC(C)c1noc(N2CCC(COc3ccc(-c4ccc(S(C)(=O)=O)cc4)nc3)CC2)n1", "target-desc": "HEK-293T", "category-label": "not fulfilled"}
{"molecule": "CC[C@@H](C)Nc1nc(C)nc2c(-c3ccc(OC)nc3C)c(C)nn12", "target-desc": "HEK-293T", "category-label": "fulfilled"}
{"molecule": "CC(C)(C)c1cc(NC(=O)Nc2ccc(-c3cn4c(n3)sc3cc(OCCN5CCOCC5)ccc34)cc2)no1", "target-desc": "HEK-293T", "category-label": "not fulfilled"}
{"molecule": "Cc1onc(-c2ccccc2Cl)c1C(=O)N(C)c1ccc(Cl)cc1", "target-desc": "HEK-293T", "category-label": "fulfilled"}
{"molecule": "CCCOc1ccc2[nH]cc(C3=CCNCC3)c2n1.Cl", "target-desc": "HEK-293T", "category-label": "not fulfilled"}
{"molecule": "CN1CCN(c2cc(-c3ccccc3)nc(N)n2)CC1", "target-desc": "HEK-293T", "category-label": "fulfilled"}
{"molecule": "CCc1cc2cc(NS(=O)(=O)c3ccc(C#N)cc3)ccc2n(CC)c1=O", "target-desc": "HEK-293T", "category-label": "not fulfilled"}
{"molecule": "O=C(NCCN1CCC(n2c(=O)[nH]c3cc(Cl)ccc32)CC1)c1ccc(F)cc1 [HALOPEMIDE]", "target-desc": "HEK-293T", "category-label": "not fulfilled"}
{"molecule": "CCCCC(=O)N(Cc1ccc(-c2ccccc2-c2nnn[nH]2)cc1)[C@H](C(=O)O)C(C)C", "target-desc": "HEK-293T", "category-label": "fulfilled"}
{"molecule": "Br.CS(=O)(=O)Nc1c(O)ccc2c1CCCC2C1=NCCN1 (stereo unspecified)", "target-desc": "HEK-293T", "category-label": "fulfilled"}

----------
System: U2OS
Test: Multiplex assay against U2OS
Format: toxicity, cell-based
Conditions: human, 48 h, 1 µM, compound concentration 1 uM, replicate 2
quantity-kind: Population Membrane Permeable-Phenotype (%)

{"compound": "CCCCC(=O)N(Cc1ccc(-c2ccccc2-c2nnn[nH]2)cc1)[C@H](C(=O)O)C(C)C", "endpoint-value": "7%"}
{"compound": "Cl.NCCc1ccc(O)c(O)c1 [DOPAMINE HYDROCHLORIDE]", "endpoint-value": "7%"}
{"compound": "COc1ccccc1N1CCN(C[C@@H](C(=O)NC(C)(C)C)c2ccccc2)CC1.Cl.Cl", "endpoint-value": "7%"}
{"compound": "Cc1sc2c(c1C)C(c1ccc(Cl)cc1)=N[C@@H](CC(=O)NCCCCCCCCNC(=O)COc1cccc3c1C(=O)N(C1CCC(=O)NC1=O)C3=O)c1nnc(C)n1-2 (some centres undefined)", "endpoint-value": "4%"}
{"compound": "O=C1[C@H](Cc2ccc(O)cc2)N2C(=O)CCN(C(=O)NCc3ccccc3)[C@H]2CN1Cc1cccc2ccccc12", "endpoint-value": "3%"}
{"compound": "Cl.N=C(N)NC(=O)Cc1c(Cl)cccc1Cl [GUANFACINE HYDROCHLORIDE]", "endpoint-value": "8%"}
{"compound": "O=C(NCCN1CCC(n2c(=O)[nH]c3cc(Cl)ccc32)CC1)c1ccc(F)cc1 [HALOPEMIDE]", "endpoint-value": "9%"}
{"compound": "CN[C@@H](C)C(=O)N[C@H](C(=O)N1CCC[C@H]1C(=O)Nc1snnc1-c1ccccc1)C1CCCCC1", "endpoint-value": "38%"}
{"compound": "C[C@H](N)COC(=O)[C@@H](CCCCN)NC(=O)Cc1c(-c2ccc3ccccc3c2)[nH]c2c1ccc1ccccc12", "endpoint-value": "3%"}
{"compound": "Br.CS(=O)(=O)Nc1c(O)ccc2c1CCCC2C1=NCCN1 (centres undefined)", "endpoint-value": "5%"}
{"compound": "CCCOc1ccc2[nH]cc(C3=CCNCC3)c2n1.Cl", "endpoint-value": "9%"}
{"compound": "CC(/C=C1\\SC(=S)N(CCCC(=O)Nc2ccc(C(=O)O)c(O)c2)C1=O)=C\\c1ccccc1", "endpoint-value": "4%"}
{"compound": "COc1cccc2c1c(NS(=O)(=O)c1ccc(Cl)s1)nn2Cc1cccc(CNC(=O)C(C)(C)O)c1", "endpoint-value": "5%"}
{"compound": "CC(C)COc1ccc(CNC(=O)N(Cc2ccc(F)cc2)C2CCN(C)CC2)cc1", "endpoint-value": "5%"}
{"compound": "Cc1onc(-c2ccccc2Cl)c1C(=O)N(C)c1ccc(Cl)cc1", "endpoint-value": "1%"}
{"compound": "CN(C)C(=O)Cn1cc(-c2ccc(-c3cncc4ccccc34)cc2)cn1", "endpoint-value": "12%"}
{"compound": "CC(C)(C)c1cc(NC(=O)Nc2ccc(-c3cn4c(n3)sc3cc(OCCN5CCOCC5)ccc34)cc2)no1", "endpoint-value": "9%"}
{"compound": "Cc1cnc(-c2cc(N3CCN(C(=O)CCS(C)(=O)=O)CC3)ncc2Cl)c(C)c1", "endpoint-value": "4%"}
{"compound": "CCCCCC(O)/C=C/[C@H]1C(=O)CC(O)C1C/C=C\\CCCC(=O)O (some centres undefined)", "endpoint-value": "5%"}
